- System: H9 (acute lymphoblastic leukemia) cells
- Test Method Notes: MTT cell growth inhibition, leukemia cells
- Format: cell-based, human
- Condition Parameters: Homo sapiens; H9, 72 h, MTT; read-out: IC50
Under this convention, criterion met denotes IC50 strictly below 1 µg/mL and criterion not met denotes IC50 at or above 1 µg/mL.

[[record]]
compound = "COc1ccc2cc1Oc1ccc(cc1)C[C@H]1c3cc(c(OC)cc3CCN1C)Oc1c(OCC(O)CN3CCSCC3)c(OC)cc3c1[C@H](C2)N(C)CC3 (stereo partly drawn) [BS-FC-417]"
category_label = "criterion not met"

[[record]]
compound = "COc1ccc2cc1Oc1ccc(cc1)C[C@H]1c3cc(c(OC)cc3CCN1C)Oc1c(OC(=O)c3ccc(N(C)C)cc3)c(OC)cc3c1[C@H](C2)N(C)CC3 [BS-FC-308]"
category_label = "criterion met"

[[record]]
compound = "COc1cc(OC)cc(C(=O)Oc2c(OC)cc3c4c2Oc2cc5c(cc2OC)CCN(C)[C@H]5Cc2ccc(cc2)Oc2cc(ccc2OC)C[C@@H]4N(C)CC3)c1 [BS-FC-311]"
category_label = "criterion not met"

[[record]]
compound = "C=CCN(C)CC(O)COc1c(OC)cc2c3c1Oc1cc4c(cc1OC)CCN(C)[C@H]4Cc1ccc(cc1)Oc1cc(ccc1OC)C[C@@H]3N(C)CC2 (stereo partly drawn) [BS-FC-409]"
category_label = "criterion met"

[[record]]
compound = "COc1ccc2cc1Oc1ccc(cc1)C[C@H]1c3cc(c(OC)cc3CCN1C)Oc1c(OCC3CC3)c(OC)cc3c1[C@H](C2)N(C)CC3 [BS-FC-208]"
category_label = "criterion not met"

[[record]]
compound = "COc1ccc2cc1Oc1ccc(cc1)C[C@H]1c3cc(c(OC)cc3CCN1C)Oc1c(OCC(O)CN3CCCC(C)C3)c(OC)cc3c1[C@H](C2)N(C)CC3 (stereo partly drawn) [BS-FC-410]"
category_label = "criterion not met"


* * *

Each entry below carries its recorded IC90.
- Test system: A549 (human lung cancer) cells
- Test Method Notes: MTT cell growth inhibition, solid tumor cells
- Type: cell-based
- Condition Parameters: Homo sapiens; A549, 72 h, MTT; read-out: IC90
Readout Type: IC90 (µg/mL)

[[record]]
compound = "COc1ccc2cc1Oc1ccc(cc1)C[C@H]1c3cc(c(OC)cc3CCN1C)Oc1c(OS(=O)(=O)c3ccc(C)cc3)c(OC)cc3c1[C@H](C2)N(C)CC3"
target_of_assay = "A549 (human lung cancer) cells"
readout_type = "IC90"
reported_measurement = 6.55

[[record]]
compound = "COc1ccc2cc1Oc1ccc(cc1)C[C@H]1c3cc(c(OC)cc3CCN1C)Oc1c(OC(=O)C3CC3)c(OC)cc3c1[C@H](C2)N(C)CC3"
target_of_assay = "A549 (human lung cancer) cells"
readout_type = "IC90"
reported_measurement = 5.59

[[record]]
compound = "COc1ccc2cc1Oc1ccc(cc1)C[C@H]1c3cc(c(OC)cc3CCN1C)Oc1c(OCC(O)CNCC3CC3)c(OC)cc3c1[C@H](C2)N(C)CC3 (stereo partly drawn)"
target_of_assay = "A549 (human lung cancer) cells"
readout_type = "IC90"
reported_measurement = 5.89


* * *

Each entry below carries its recorded IC90.
- Tested on: RKO (human colon adenocarcinoma) cells
- Test Method Notes: MTT cell growth inhibition, solid tumor cells
- Type: cell-based
- Condition Parameters: Homo sapiens; RKO, 72 h, MTT; read-out: IC90
Readout Type: IC90 (µg/mL)

[[record]]
chemical_smiles = "COc1ccc2cc1Oc1ccc(cc1)C[C@H]1c3cc(c(OC)cc3CCN1C)Oc1c(OC3CCCC3)c(OC)cc3c1[C@H](C2)N(C)CC3"
readout_type = "IC90"
readout_unit = "µg/mL"
reported_measurement = 3.73

[[record]]
chemical_smiles = "COc1ccc2cc1Oc1ccc(cc1)C[C@H]1c3cc(c(OC)cc3CCN1C)Oc1c(OCC3CC3)c(OC)cc3c1[C@H](C2)N(C)CC3"
readout_type = "IC90"
readout_unit = "µg/mL"
reported_measurement = 4.64

[[record]]
chemical_smiles = "C=CCOc1c(OC)cc2c3c1Oc1cc4c(cc1OC)CCN(C)[C@H]4Cc1ccc(cc1)Oc1cc(ccc1OC)C[C@@H]3N(C)CC2"
readout_type = "IC90"
readout_unit = "µg/mL"
reported_measurement = 3.46


* * *

- Tested on: NB4 (acute promyelocytic leukemia) cells
- Test Method Notes: MTT cell growth inhibition, leukemia cells
- Type: cell-based
- Condition Parameters: Homo sapiens; NB4, 72 h, MTT; read-out: IC50
Readout Type: IC50

[[record]]
compound = "C=C(C)COc1c(OC)cc2c3c1Oc1cc4c(cc1OC)CCN(C)[C@H]4Cc1ccc(cc1)Oc1cc(ccc1OC)C[C@@H]3N(C)CC2 [BS-FC-221]"
reported_measurement = "0.57 µg/mL"

[[record]]
compound = "COc1ccc2cc1Oc1ccc(cc1)C[C@H]1c3cc(c(OC)cc3CCN1C)Oc1c(OCC(O)CN3CCCCC3)c(OC)cc3c1[C@H](C2)N(C)CC3 (stereo partly drawn) [BS-FC-403]"
reported_measurement = "0.3 µg/mL"

[[record]]
compound = "COc1ccc2cc1Oc1ccc(cc1)C[C@H]1c3cc(c(OC)cc3CCN1C)Oc1c(OC(=O)C3CC3)c(OC)cc3c1[C@H](C2)N(C)CC3 [BS-FC-304]"
reported_measurement = "1.24 µg/mL"


* * *

- Test system: RKO (human colon adenocarcinoma) cells
- Test Method Notes: MTT cell growth inhibition, solid tumor cells
- Format: cell-based
- Condition Parameters: Homo sapiens; RKO, 72 h, MTT; read-out: IC50
- Protocol: […] 6000 well-growing human solid tumor cells were obtained and inoculated into wells of a 96-well cell culture plate. […] Then the viable cell concentration was determined by the MTT method.
Under this convention, True denotes IC50 strictly below 0.7 µg/mL and False denotes IC50 at or above 0.7 µg/mL.

[[record]]
molecule = "COc1ccc2cc1Oc1ccc(cc1)C[C@H]1c3cc(c(OC)cc3CCN1C)Oc1c(OCC(O)CN3CCCC(C)C3)c(OC)cc3c1[C@H](C2)N(C)CC3 (stereo partly drawn)"
target_of_assay = "RKO (human colon adenocarcinoma) cells"
category_label = "True"

[[record]]
molecule = "COc1ccc2cc1Oc1ccc(cc1)C[C@H]1c3cc(c(OC)cc3CCN1C)Oc1c(OS(=O)(=O)c3ccccc3)c(OC)cc3c1[C@H](C2)N(C)CC3"
target_of_assay = "RKO (human colon adenocarcinoma) cells"
category_label = "False"

[[record]]
molecule = "COc1ccc2cc1Oc1ccc(cc1)C[C@H]1c3cc(c(OC)cc3CCN1C)Oc1c(OCC(O)CN3CCN(C#N)CC3)c(OC)cc3c1[C@H](C2)N(C)CC3 (stereo partly drawn)"
target_of_assay = "RKO (human colon adenocarcinoma) cells"
category_label = "True"

[[record]]
molecule = "COc1ccc2cc1Oc1ccc(cc1)C[C@H]1c3cc(c(OC)cc3CCN1C)Oc1c(OCc3ccc(C(F)(F)F)cc3)c(OC)cc3c1[C@H](C2)N(C)CC3"
target_of_assay = "RKO (human colon adenocarcinoma) cells"
category_label = "False"

[[record]]
molecule = "COc1ccc2cc1Oc1ccc(cc1)C[C@H]1c3cc(c(OC)cc3CCN1C)Oc1c(OCC(O)CN3CCCCC3)c(OC)cc3c1[C@H](C2)N(C)CC3 (stereo partly drawn)"
target_of_assay = "RKO (human colon adenocarcinoma) cells"
category_label = "True"


* * *

- Tested on: Hela (human cervical cancer) cells
- Test Method Notes: MTT cell growth inhibition, solid tumor cells
- Type: cell-based
- Condition Parameters: Homo sapiens; Hela, 72 h, MTT; read-out: IC90
Under this convention, class 1 denotes IC90 strictly below 3 µg/mL and class 0 denotes IC90 at or above 3 µg/mL.

[[record]]
molecule = "COc1ccc2cc1Oc1ccc(cc1)C[C@H]1c3cc(c(OC)cc3CCN1C)Oc1c(OC(=O)c3ccc(N(C)C)cc3)c(OC)cc3c1[C@H](C2)N(C)CC3"
category_label = "class 1"

[[record]]
molecule = "C=CCN(C)CC(O)COc1c(OC)cc2c3c1Oc1cc4c(cc1OC)CCN(C)[C@H]4Cc1ccc(cc1)Oc1cc(ccc1OC)C[C@@H]3N(C)CC2 (stereo partly drawn)"
category_label = "class 0"

[[record]]
molecule = "COc1ccc2cc1Oc1ccc(cc1)C[C@H]1c3cc(c(OC)cc3CCN1C)Oc1c(OCc3ccc(C(F)(F)F)cc3)c(OC)cc3c1[C@H](C2)N(C)CC3"
category_label = "class 0"

[[record]]
molecule = "COc1ccc2cc1Oc1ccc(cc1)C[C@H]1c3cc(c(OC)cc3CCN1C)Oc1c(OCC(O)CN3CCN(C#N)CC3)c(OC)cc3c1[C@H](C2)N(C)CC3 (stereo partly drawn)"
category_label = "class 1"

[[record]]
molecule = "COc1ccc2cc1Oc1ccc(cc1)C[C@H]1c3cc(c(OC)cc3CCN1C)Oc1c(OC3CCCC3)c(OC)cc3c1[C@H](C2)N(C)CC3"
category_label = "class 0"

[[record]]
molecule = "COc1ccc2cc1Oc1ccc(cc1)C[C@H]1c3cc(c(OC)cc3CCN1C)Oc1c(OCC(O)CN3CCSCC3)c(OC)cc3c1[C@H](C2)N(C)CC3 (stereo partly drawn)"
category_label = "class 0"

[[record]]
molecule = "COc1ccc2cc1Oc1ccc(cc1)C[C@H]1c3cc(c(OC)cc3CCN1C)Oc1c(OCC(O)CNCC3CC3)c(OC)cc3c1[C@H](C2)N(C)CC3 (stereo partly drawn)"
category_label = "class 1"

[[record]]
molecule = "C=CCOc1c(OC)cc2c3c1Oc1cc4c(cc1OC)CCN(C)[C@H]4Cc1ccc(cc1)Oc1cc(ccc1OC)C[C@@H]3N(C)CC2"
category_label = "class 0"

[[record]]
molecule = "COc1ccc2cc1Oc1ccc(cc1)C[C@H]1c3cc(c(OC)cc3CCN1C)Oc1c(OCC(O)CN3CCCC(C)C3)c(OC)cc3c1[C@H](C2)N(C)CC3 (stereo partly drawn)"
category_label = "class 1"

[[record]]
molecule = "COc1ccc2cc1Oc1ccc(cc1)C[C@H]1c3cc(c(OC)cc3CCN1C)Oc1c(OCc3cccc(F)c3F)c(OC)cc3c1[C@H](C2)N(C)CC3"
category_label = "class 1"

[[record]]
molecule = "COc1ccc2cc1Oc1ccc(cc1)C[C@H]1c3cc(c(OC)cc3CCN1C)Oc1c(OCC3CC3)c(OC)cc3c1[C@H](C2)N(C)CC3"
category_label = "class 0"

[[record]]
molecule = "COc1cc(OC)cc(C(=O)Oc2c(OC)cc3c4c2Oc2cc5c(cc2OC)CCN(C)[C@H]5Cc2ccc(cc2)Oc2cc(ccc2OC)C[C@@H]4N(C)CC3)c1"
category_label = "class 1"

